Origin of values: ChEMBL document CHEMBL3351458

Assay explanation: AUC(infinity) in C57bl/6 mouse at 30 mg/kg, ip
Assay type: ADME, organism-based
Design: time infinity, dose 30 mg/kg, route intraperitoneal
Measurement conditions: plasma

- Chem smiles: "CCCc1cc(C(=O)N[C@H](Cc2ccc(-c3cccc(OC(F)(F)F)c3)nc2)C(=O)N[C@@H]2CCNC2)sc1C"
  AUC(0-inf), µg·h/mL: 120
